Target: Beta-Amyloid (1-42), human (Homo sapiens, UniProt P05067)
Construct: Component B: Beta-Amyloid (1-42), human, 0.25 mg×2, lyophilized;
Sequence (P05067 672-713 limits assumed): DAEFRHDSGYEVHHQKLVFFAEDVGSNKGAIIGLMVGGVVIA
Test: Thioflavin T (ThT) Beta-Amyloid (1-42) Aggregation Assay
Settings: 8 μM Beta-Amyloid (1-42), 50 μM ThT dye, 37° C., slope of fluorescence time course; read-out: IC50 for inhibiting amyloids
pIC50: −log10 of the molar value.
Endpoint: pIC50

Check out these entries, answers already filled in.
INSERT INTO results (substance_smiles, tested_on, endpoint, result) VALUES
  ('Clc1ccc2nc(SCc3cn4cc(Cl)ccc4n3)[nH]c2c1', 'Beta-Amyloid (1-42), human (Homo sapiens, UniProt P05067)', 'pIC50', '> 4.00'),
  ('O=[N+]([O-])c1ccc2nc(SCc3nc4ccc(Cl)cn4c3Br)[nH]c2c1', 'Beta-Amyloid (1-42), human (Homo sapiens, UniProt P05067)', 'pIC50', '> 3.70'),
  ('CCn1c(SCc2cn3cc(C)ccc3n2)nc2ccccc21', 'Beta-Amyloid (1-42), human (Homo sapiens, UniProt P05067)', 'pIC50', '> 4.00'),
  ('Cn1c(CSc2nc3ncccn3n2)nc2cc(Cl)ccc21', 'Beta-Amyloid (1-42), human (Homo sapiens, UniProt P05067)', 'pIC50', '> 3.70');

Next compound, pIC50 to be filled in.
// query pIC50 value for entry `Cc1ccc2nc(CSc3nc4ccc(Cl)cc4[nH]3)cn2c1`
> 3.70
